assayed.system: UniProtKB P34179
Sequence (P34179 whole entry, looked up): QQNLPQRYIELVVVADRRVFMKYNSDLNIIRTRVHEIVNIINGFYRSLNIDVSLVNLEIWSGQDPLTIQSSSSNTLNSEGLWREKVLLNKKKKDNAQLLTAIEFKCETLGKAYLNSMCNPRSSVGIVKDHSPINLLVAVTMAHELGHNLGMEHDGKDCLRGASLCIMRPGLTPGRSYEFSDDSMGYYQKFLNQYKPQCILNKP
Type: biochemical
test.context: read-out: IC50
pIC50: −log10 of the molar value.
Use 1 (yes) when the recorded pIC50 is no lower than 7; use 0 (no) when it is lower.

See these solved cases before continuing.
- CC(C)C[C@H](NC(=O)c1ccncc1)C(=O)N1Cc2[nH]c3ccccc3c2C[C@H]1C(=O)O [Compound 29, 4-NIC--(L)--Leu--(S)--Cyt--OH]: 0 (no)
- CC(C)C[C@H](NC(=O)c1cc2cc(O)ccc2[nH]1)C(=O)N1Cc2[nH]c3ccccc3c2C[C@H]1C(=O)O [Compound 7, 5-HIC--(L)--Leu--(S)--Cyt--OH]: 1 (yes)
- COc1cc(C(=O)N[C@@H](CC(C)C)C(=O)N2Cc3[nH]c4ccccc4c3C[C@H]2C(=O)O)nc2ccccc12 [Compound 6, 4-MQC--(L)--Leu--(S)--Cyt--OH]: 1 (yes)

Request: Is the recorded value of pIC50 equal to or greater than 7 for this compound? CC(C)C[C@H](NC(=O)c1cnccn1)C(=O)N1Cc2[nH]c3ccccc3c2C[C@H]1C(=O)O [Compound 18, 2-PZC--(L)--Leu--(S)--Cyt--OH]
Response: 0 (no)

Request: Is the recorded value of pIC50 equal to or greater than 7 for this compound? CC(C)C[C@H](NC(=O)c1cc2ccccc2o1)C(=O)N1Cc2[nH]c3ccccc3c2C[C@H]1C(=O)O [Compound 15, 2-BZF--(L)--Leu--(S)--Cyt--OH]
Response: 1 (yes)

Request: Is the recorded value of pIC50 equal to or greater than 7 for this compound? CC(C)C[C@H](NC(=O)CSc1ccncc1)C(=O)N1Cc2[nH]c3ccccc3c2C[C@H]1C(=O)O [Compound 3, 4-PTA--(L)--Leu--(S)--Cyt--OH]
Response: 0 (no)

Request: Is the recorded value of pIC50 equal to or greater than 7 for this compound? CC(C)C[C@H](NC(=O)c1ccc2ccccc2n1)C(=O)N1Cc2[nH]c3ccccc3c2C[C@H]1C(=O)O [Compound 16, 2-QIC--(L)--Leu--(S)--Cyt--OH]
Response: 1 (yes)

Request: Is the recorded value of pIC50 equal to or greater than 7 for this compound? CC(C)C[C@H](NC(=O)CSc1ncccn1)C(=O)N1Cc2[nH]c3ccccc3c2C[C@H]1C(=O)O [Compound 2, 2-PMTA--(L)--Leu--(S)--Cyt--OH]
Response: 0 (no)

Request: Is the recorded value of pIC50 equal to or greater than 7 for this compound? O=C(N[C@@H](Cc1c[nH]c2ccccc12)C(=O)N1Cc2[nH]c3ccccc3c2C[C@H]1C(=O)O)c1ccco1 [Compound 34, 2-FUR--(L)--Trp--(S)--Cyt--OH]
Response: 0 (no)

Request: Is the recorded value of pIC50 equal to or greater than 7 for this compound? COc1ccc2[nH]c(C(=O)N[C@@H](Cc3c[nH]c4ccccc34)C(=O)N3Cc4[nH]c5ccccc5c4C[C@H]3C(=O)O)cc2c1 [Compound 14, 5-MIC--(L)--Trp--(S)--Cyt--OH]
Response: 1 (yes)

Request: Is the recorded value of pIC50 equal to or greater than 7 for this compound? NC(=O)C[C@H](NC(=O)c1ccco1)C(=O)N1Cc2[nH]c3ccccc3c2C[C@H]1C(=O)O [Compound 35, 2-FUR--(L)--Asn--(S)--Cyt--OH]
Response: 0 (no)

Request: Is the recorded value of pIC50 equal to or greater than 7 for this compound? COc1ccccc1CC(=O)N[C@@H](CC(C)C)C(=O)N1Cc2[nH]c3ccccc3c2C[C@H]1C(=O)O [Compound 19, 2-MPA--(L)--Leu--(S)--Cyt--OH]
Response: 0 (no)

Request: Is the recorded value of pIC50 equal to or greater than 7 for this compound? CC(C)C[C@H](NC(=O)c1cccc2ccccc12)C(=O)N1Cc2[nH]c3ccccc3c2C[C@H]1C(=O)O [Compound 37, 1-NAF--(L)--Leu--(S)--Cyt--OH]
Response: 0 (no)

Request: Is the recorded value of pIC50 equal to or greater than 7 for this compound? CC(C)C[C@H](NC(=O)[C@@H](N)CCO)C(=O)N1Cc2[nH]c3ccccc3c2C[C@H]1C(=O)O [Compound 12, (L)--HomoSer--(L)--Leu--(S)--Cyt--OH]
Response: 0 (no)

Request: Is the recorded value of pIC50 equal to or greater than 7 for this compound? O=C(N[C@@H](CC1CCCCC1)C(=O)N1Cc2[nH]c3ccccc3c2C[C@H]1C(=O)O)c1ccco1 [Compound 10, 2-FUR--(L)--Cha--(S)--Cyt--OH]
Response: 1 (yes)

Request: Is the recorded value of pIC50 equal to or greater than 7 for this compound? CC(C)C[C@H](NC(=O)c1ccccn1)C(=O)N1Cc2[nH]c3ccccc3c2C[C@H]1C(=O)O [Compound 9, PIC--(L)--Leu--(S)--Cyt--OH]
Response: 1 (yes)
